Molecular target: androgen receptor (Homo sapiens)
Construct: made in house; host or cells: insect cells (baculovirus expression system)
Sequence (P10275 1-920): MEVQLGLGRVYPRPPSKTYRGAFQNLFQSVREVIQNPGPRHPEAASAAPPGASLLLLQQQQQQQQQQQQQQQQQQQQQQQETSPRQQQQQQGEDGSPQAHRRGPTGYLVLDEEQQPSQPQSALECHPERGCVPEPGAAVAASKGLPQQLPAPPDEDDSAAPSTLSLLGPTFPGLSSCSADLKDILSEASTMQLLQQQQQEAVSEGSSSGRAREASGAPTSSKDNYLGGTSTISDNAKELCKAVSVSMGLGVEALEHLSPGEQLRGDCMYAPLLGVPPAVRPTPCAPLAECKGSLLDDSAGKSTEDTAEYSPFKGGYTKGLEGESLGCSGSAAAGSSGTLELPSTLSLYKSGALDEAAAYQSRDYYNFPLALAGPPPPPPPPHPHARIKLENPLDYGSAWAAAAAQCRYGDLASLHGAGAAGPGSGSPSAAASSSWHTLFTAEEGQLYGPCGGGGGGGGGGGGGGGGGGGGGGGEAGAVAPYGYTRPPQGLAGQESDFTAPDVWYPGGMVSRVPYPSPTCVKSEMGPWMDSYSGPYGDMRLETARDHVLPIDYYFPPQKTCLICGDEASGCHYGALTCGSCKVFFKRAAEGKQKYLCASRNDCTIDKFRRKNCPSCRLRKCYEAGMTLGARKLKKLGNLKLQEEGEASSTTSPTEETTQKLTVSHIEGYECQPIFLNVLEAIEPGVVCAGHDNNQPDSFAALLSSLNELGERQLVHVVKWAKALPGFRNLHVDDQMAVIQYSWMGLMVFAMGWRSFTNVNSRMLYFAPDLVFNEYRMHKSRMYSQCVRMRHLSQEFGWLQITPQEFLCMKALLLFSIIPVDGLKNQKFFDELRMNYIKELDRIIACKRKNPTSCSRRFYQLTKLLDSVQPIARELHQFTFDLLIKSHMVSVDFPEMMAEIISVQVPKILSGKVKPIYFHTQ
Test: Test of receptor binding activity ([3H]DHT competition, hydroxyapatite)
Details: competition with 5 nM [3H]DHT, overnight at 4° C.; read-out: Receptor binding (IC50)
Metric: IC50 (nM)

# count of solved cases: 5
Compound	Unit tag	IC50
O=C(CC(Nc1ccc(Cl)c([N+](=O)[O-])c1)c1ccccc1)c1ccc(Cl)cc1 (stereo not shown)	nM	6.45
O=C(CC(Nc1ccc(Cl)c([N+](=O)[O-])c1)c1ccco1)c1ccc(Cl)cc1 (stereo not shown)	nM	3.25
O=C(CC(Nc1ccc(Cl)c([N+](=O)[O-])c1)c1ccco1)c1ccc(Br)cc1 (stereo not shown)	nM	3.61
O=C(CC(Nc1ccc([N+](=O)[O-])cc1)c1ccco1)c1ccc(Br)cc1 (stereo not shown)	nM	3.01
O=C(CC(Nc1ccc([N+](=O)[O-])cc1)c1ccccc1)c1ccc(Cl)cc1 (stereo not shown)	nM	2.93

I. O=C(CC(Nc1ccc([N+](=O)[O-])cc1)c1ccccc1)c1ccc(Br)cc1 (stereo not shown)
II. O=C(CC(Nc1ccc(Cl)c([N+](=O)[O-])c1)c1ccccc1)c1ccc(Br)cc1 (stereo not shown)
Would you mind telling me which has the lower recorded IC50 between I and II ? Kindly give the label for the entry you pick. I
(I: 2.85 nM, II: 4.31 nM)

====

Metric: melting point

Molecule	melting point
Cc1ccc(C(=O)CC(Nc2ccc([N+](=O)[O-])cc2)c2ccccc2)cc1 (stereo not shown)	157 to 159 °C
Cc1ccc(C(=O)CC(Nc2ccccc2)c2ccc(C)cc2)cc1 (stereo not shown)	131 to 132 °C
Cc1ccc(C(=O)CC(Nc2ccc(Cl)cc2)c2ccccc2)cc1 (stereo not shown)	152 to 154 °C

Now look at this entry.
Value lookup for melting point; key = Cc1ccc(C(=O)CC(Nc2ccc(C(=O)O)cc2)c2ccccc2)cc1 (stereo not shown) 208 to 210 °C
